Values were extracted from patent US20260092093A1.

- target system: T1, recombinant hIL-18Rα extracellular domain (human, UniProt Q13478 22-329, biotin label (selection) or fluorescent probe (single-clone FACS), sites not given)
- T1 construct: extracellular domain; also called hIL-18Rα ECD; hIL-18Rα-ECD
- T1 sequence (looked up): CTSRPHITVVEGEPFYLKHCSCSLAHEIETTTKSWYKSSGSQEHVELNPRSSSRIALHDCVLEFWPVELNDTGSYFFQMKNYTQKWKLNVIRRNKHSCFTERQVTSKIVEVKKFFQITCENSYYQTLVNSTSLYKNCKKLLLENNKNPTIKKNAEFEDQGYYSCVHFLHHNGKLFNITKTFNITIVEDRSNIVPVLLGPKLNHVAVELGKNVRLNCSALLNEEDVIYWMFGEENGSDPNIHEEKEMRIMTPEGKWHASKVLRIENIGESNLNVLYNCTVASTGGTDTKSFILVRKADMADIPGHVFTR
- assay remarks: single-clone FACS, yeast display, 10 nM labelled hIL-18Rα ECD
measurement type: % of fluorescence positive cells (%)
Dear colleague, please return just the value in %, with no unit written.

Please review the following examples before continuing.
{"binder": "SEQ ID NO 86 (ligand) YFPKLNSKLSVIRNLNDQVLFIDQGNRPLFEDMTDSDCRDNAPRTIFIISMYKLSTVRGMAVTISVKCEKISTLSCENKIISFKEMNPPDPIKDTKSDIIFFQHSVPGHDNKMQFESSSYEGYFLACEKERDLFKLILKKEDELGDRSIMFTVQNED", "% of fluorescence positive cells [%]": 9.28}
{"binder": "SEQ ID NO 47 (ligand) YFPKLRSKLSVIRNLNDQVLFIDQGNRPLFEDMTDSDCRDNAPRTIFIISMYKLSTVRGMAVTISVKCEKISTLSCENKIISFKEMNPPDGIKDTKSDIIFFQHSVPGHDNKMQFESSSYEGYFLACEKERDLFKLILKKEDELGDRSIMFTVQNED", "% of fluorescence positive cells [%]": 84.7}

Now take the following binder into account.
Give the measured % of fluorescence positive cells of IL-18 variant polypeptide M17 (ligand) YFPKLRSKLSVIRNLNDQVLFIDQGNRPLFEDMTDSDCRDNAPRTIFIISMYKLSTARGMAVTISVKCEKISTLSCENKIISFKEMNPPDGIKDTKSDIIFFQRSVPGHDNKMQFESSSYEGYFLACEKERDLFKLILKKEDELGDRSIMFTVQNED .
87.1
